target: 11-beta-hydroxysteroid dehydrogenase 1 (Homo sapiens, UniProt P28845); assay: Inhibition of human recombinant 11beta-HSD1 expressed in HEK293 cell lysate assessed as conversion of radiolabeled estrone to estradiol at 20 uM; type: cell-free; set-up: scale not given: the % may be the effect or the level left
Sequence (P28845 whole entry, looked up): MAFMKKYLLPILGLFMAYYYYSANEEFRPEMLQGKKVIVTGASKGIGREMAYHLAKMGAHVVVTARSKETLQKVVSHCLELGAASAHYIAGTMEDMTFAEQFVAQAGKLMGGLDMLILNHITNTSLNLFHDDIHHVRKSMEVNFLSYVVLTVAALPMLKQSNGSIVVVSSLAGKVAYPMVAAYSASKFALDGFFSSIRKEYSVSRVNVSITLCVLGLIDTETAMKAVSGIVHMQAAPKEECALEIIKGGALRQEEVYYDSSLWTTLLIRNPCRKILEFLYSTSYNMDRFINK

{"compound": "Cc1ccc(S(=O)(=O)N/N=C2\\C=C[C@H]3[C@@H]4CC=C5C[C@@H](O)CC[C@]5(C)[C@H]4CC[C@]23C)cc1", "Activity [%]": 9}
{"compound": "Cc1c(/C=N/N=C2\\CC[C@H]3[C@@H]4CCc5cc(O)ccc5[C@H]4CC[C@]23C)cnn1C", "Activity [%]": 81}
{"compound": "CCCCC(=O)Nc1sc2c(c1C(=O)OCC)CCC(/C=N/O)=C2Cl", "Activity [%]": 106}
{"compound": "CCOc1cc(/C=N/NC(=O)c2ccccn2)c(Br)c(Br)c1O", "Activity [%]": 68}
{"compound": "COC(C(=O)Nc1ccc(-c2ccc(NC(=O)C(OC)c3ccccc3)c(C)c2)cc1C)c1ccccc1 (stereo not given)", "Activity [%]": 110}

###

molecular target: 11-beta-hydroxysteroid dehydrogenase 1 (Homo sapiens); experiment: Inhibition of human recombinant 11beta-HSD1 expressed in HEK293 cell lysate assessed as conversion of radiolabeled estrone to estradiol
Sequence (P28845 whole entry): as the sequence (P28845 whole entry, looked up) above

{"molecule": "Cc1ccc(S(=O)(=O)N/N=C2\\C=C[C@H]3[C@@H]4CC=C5C[C@@H](O)CC[C@]5(C)[C@H]4CC[C@]23C)cc1", "system-name": "11-beta-hydroxysteroid dehydrogenase 1 (Homo sapiens)", "value-qualifier": "=", "IC50, µM": 3.8}
{"molecule": "C[C@]12CC[C@@H]3c4ccc(OC5CCCCO5)cc4CC[C@H]3[C@@H]1CC[C@@H]2O (some centres undefined)", "system-name": "11-beta-hydroxysteroid dehydrogenase 1 (Homo sapiens)", "value-qualifier": "=", "IC50, µM": 20}
{"molecule": "CCOc1cc(CNC2C(C)=NN=C2S)cc(Br)c1OCC(=O)NC1CCCCC1 (centres undefined)", "system-name": "11-beta-hydroxysteroid dehydrogenase 1 (Homo sapiens)", "value-qualifier": "=", "IC50, µM": 6.2}
{"molecule": "CCOc1cc(/C=N/NC(N)=O)c(Br)c(Br)c1OCC(=O)Nc1ccc(C)cc1", "system-name": "11-beta-hydroxysteroid dehydrogenase 1 (Homo sapiens)", "value-qualifier": ">", "IC50, µM": 50}

###

Target: UniProt P37058
Sequence (whole entry): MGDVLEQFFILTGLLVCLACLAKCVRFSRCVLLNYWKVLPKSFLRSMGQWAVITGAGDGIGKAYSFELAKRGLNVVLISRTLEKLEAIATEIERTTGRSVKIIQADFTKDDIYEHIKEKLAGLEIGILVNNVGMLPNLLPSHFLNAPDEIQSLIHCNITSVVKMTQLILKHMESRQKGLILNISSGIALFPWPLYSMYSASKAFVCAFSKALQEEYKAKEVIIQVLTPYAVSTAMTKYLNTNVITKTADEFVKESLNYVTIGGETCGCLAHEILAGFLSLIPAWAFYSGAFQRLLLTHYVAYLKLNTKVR
Assay: Inhibition of human recombinant 17beta-HSD3 expressed in intact HEK293 cells assessed as conversion of androstenedione to testosterone at 20 uM
Assay type: cell-based
Parameters: scale not given: the % may be the effect or the level left
assay-metric: Activity (%)

{"compound": "CCOc1cc(/C=N/NC(=O)c2ccccn2)c(Br)c(Br)c1O", "obs-value": 95}
{"compound": "COC(C(=O)Nc1ccc(-c2ccc(NC(=O)C(OC)c3ccccc3)c(C)c2)cc1C)c1ccccc1 (stereo not given)", "obs-value": 96}
{"compound": "C[C@]12CC[C@@H]3c4ccc(OC5CCCCO5)cc4CC[C@H]3[C@@H]1CC[C@@H]2O (stereo not given in full)", "obs-value": 57}
{"compound": "COc1c2c(cc3c1C1Oc4c(ccc(O)c4CC=C(C)C)C1CO3)OC(C)(C)C=C2 (stereo not given)", "obs-value": 55}
{"compound": "O=S(=O)(Nc1ccccc1)c1ccc2c(c1)Cc1cc(S(=O)(=O)Nc3ccccc3)ccc1-2", "obs-value": 80}

###

target: 17-beta-hydroxysteroid dehydrogenase type 1 (Homo sapiens); assay: Inhibition of human recombinant 17beta-HSD1 expressed in HEK293 cell lysate assessed as conversion of radiolabeled estrone to estradiol at 20 uM; type: cell-free; parameters: scale not given: the % may be the effect or the level left
Measured Activity, listed per entry.

{"molecule": "O=c1c(O)c(-c2ccc(O)c(O)c2)oc2cc(O)cc(O)c12", "Activity, %": 65}
{"molecule": "O=c1c(O)c(-c2ccc(O)cc2)oc2cc(O)cc(O)c12", "Activity, %": 13}
{"molecule": "O=C1CC(c2ccccc2)Oc2ccccc21 (centres undefined)", "Activity, %": 110}
{"molecule": "COc1ccc([C@@H]2CC(=O)c3c(O)cc(O)cc3O2)cc1O", "Activity, %": 44}
{"molecule": "O=c1cc(-c2ccc(O)cc2)oc2cc(O)cc(O)c12", "Activity, %": 10}
{"molecule": "CC1(C)[C@@H](O)CC[C@]2(C)[C@H]3C(=O)C=C4[C@@H]5C[C@@](C)(C(=O)O)CC[C@]5(C)CC[C@@]4(C)[C@]3(C)CC[C@@H]12", "Activity, %": 53}
{"molecule": "CCOc1cc(CNC2C(C)=NN=C2S)cc(Br)c1OCC(=O)NC1CCCCC1 (centres undefined)", "Activity, %": 70}
{"molecule": "Cc1c(/C=N/N=C2\\CC[C@H]3[C@@H]4CCc5cc(O)ccc5[C@H]4CC[C@]23C)cnn1C", "Activity, %": 34}
{"molecule": "C[C@]12CC[C@@H]3c4ccc(OC5CCCCO5)cc4CC[C@H]3[C@@H]1CC[C@@H]2O (some centres undefined)", "Activity, %": 74}

###

Molecular target: 17-beta-hydroxysteroid dehydrogenase type 1 (Homo sapiens)
Sequence (whole entry): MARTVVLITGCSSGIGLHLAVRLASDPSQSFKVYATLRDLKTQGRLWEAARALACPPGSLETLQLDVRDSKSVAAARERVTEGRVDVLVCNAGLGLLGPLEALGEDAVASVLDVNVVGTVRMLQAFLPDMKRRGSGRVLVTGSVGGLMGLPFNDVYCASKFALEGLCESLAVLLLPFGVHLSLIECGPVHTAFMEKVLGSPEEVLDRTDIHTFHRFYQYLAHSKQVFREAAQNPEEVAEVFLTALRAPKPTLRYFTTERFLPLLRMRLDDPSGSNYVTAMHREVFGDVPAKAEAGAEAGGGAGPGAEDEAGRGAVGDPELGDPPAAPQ
Test: Inhibition of human recombinant 17beta-HSD1 expressed in HEK293 cell lysate assessed as conversion of radiolabeled estrone to estradiol at 20 uM
Format: cell-free
Design: scale not given: the % may be the effect or the level left
assay-metric: Activity

{"input-smiles": "Cc1cc2c(C(C)C)c(O)c(O)c(C=O)c2c(O)c1-c1c(C)cc2c(C(C)C)c(O)c(O)c(C=O)c2c1O", "obs-value": "60%"}
{"input-smiles": "CCOc1cc(/C=N/NC(N)=O)c(Br)c(Br)c1OCC(=O)Nc1ccc(C)cc1", "obs-value": "16%"}
{"input-smiles": "O=C1C[C@@H](c2ccc(O)cc2)Oc2cc(O)cc(O)c21", "obs-value": "17.2%"}

###

Activity: recorded values
target: UniProtKB P14061; assay: Inhibition of human recombinant 17beta-HSD1 expressed in HEK293 cell lysate assessed as conversion of radiolabeled estrone to estradiol at 20 uM; format: cell-free; set-up: scale not given: the % may be the effect or the level left

{"compound": "Cc1cc(OCCOc2ccc(N)cc2)ccc1N1C(N)=NC(N)=NC1(C)C", "Activity [%]": 84}
{"compound": "O=C1CC(c2ccccc2O)Oc2ccccc21 (stereo unspecified)", "Activity [%]": 95}
{"compound": "CCOc1cc(/C=N/NC(=O)c2ccccn2)c(Br)c(Br)c1O", "Activity [%]": 88}
{"compound": "O=c1c(-c2ccc(O)cc2)coc2cc(O)ccc12", "Activity [%]": 35}
{"compound": "Cc1cc(/C=N/NC(=O)C(O)(c2ccccc2)c2ccccc2)c(C)n1-c1ccc(O)cc1", "Activity [%]": 73}
{"compound": "CCCCC(=O)Nc1sc2c(c1C(=O)OCC)CCC(/C=N/O)=C2Cl", "Activity [%]": 76}
{"compound": "O=C1CC(c2ccc(O)cc2)Oc2ccccc21 (stereo unspecified)", "Activity [%]": 99}
{"compound": "O=c1cc(-c2ccccc2)oc2ccccc12", "Activity [%]": 94}
{"compound": "O=C1CC(c2ccccc2)Oc2ccc(O)cc21 (stereo unspecified)", "Activity [%]": 102}
{"compound": "COc1ccc(-c2coc3cc(O)cc(O)c3c2=O)cc1", "Activity [%]": 45}
{"compound": "Cc1ccc(S(=O)(=O)N/N=C2\\C=C[C@H]3[C@@H]4CC=C5C[C@@H](O)CC[C@]5(C)[C@H]4CC[C@]23C)cc1", "Activity [%]": 63}
